We begin with a simple list: items and their reported Selectivity Index.
Experiment: Selectivity index, ratio of ED50 for human KB cells to IC50 for […] Plasmodium falciparum D6
Format: functional
experimental-endpoint: Selectivity Index

* COc1cc2c3cc1Oc1c(O)c(OC)cc4c1[C@@H](Cc1ccc(cc1)Oc1cc(ccc1O)C[C@H]3N(C)CC2)N(C)CC4 | 300
* COc1ccc2cc1Oc1ccc(cc1)C[C@H]1c3c(cc(O)c(OC)c3Oc3cc4c(cc3OC)CCN(C)[C@@H]4C2)CCN1C | 49
* COc1ccc2cc1Oc1cc3c(cc1OC)CCN(C(C)=O)[C@H]3Cc1ccc(cc1)Oc1c3c(cc4c1[C@H](C2)N(C)CC4)OCO3 | 3.6
* COc1cc2c3cc1Oc1c(O)c(OC)cc4c1[C@H](Cc1ccc(cc1)Oc1cc(ccc1O)C[C@H]3N(C)CC2)N(C)CC4 | 33

* * *

Test: Selectivity index, ratio of ED50 for human KB cells to IC50 for […] Plasmodium falciparum D6
Type: functional
# yes = Selectivity Index below 50 (exclusive); no = Selectivity Index at/above 50

- COc1ccc2cc1Oc1ccc(cc1)C[C@H]1c3c(cc(OC)c(O)c3Oc3cc4c(cc3OC)CCN(C)[C@H]4C2)CCN1C: no
- COc1ccc2cc1Oc1ccc(cc1)C[C@H]1c3cc(c(OC)cc3CCN1C)Oc1c(O)c(OC)cc3c1[C@@H](C2)N(C)CC3: no
- COc1ccc2cc1Oc1ccc(cc1)C[C@@H]1c3cc(c(OC)cc3CCN1C)Oc1c(O)c(OC)cc3c1[C@@H](C2)N(C)CC3: no
- COc1cc2c3cc1Oc1cc(ccc1O)C[C@H]1c4c(cc(OC)c(c4O)OCc4ccc(cc4)CC3NCC2)CCN1C (stereo partly specified): yes
- COc1ccc2cc1Oc1ccc(cc1)C[C@H]1c3c(cc(OC)c4c3Oc3cc5c(cc3O4)CCN(C)[C@H]5C2)CCN1C [ISOTRILOBINE]: no
- COc1ccc2cc1Oc1ccc(cc1)C[C@H]1c3c(cc(OC)c(OC)c3Oc3cc4c(cc3OC)CCN(C)[C@@H]4C2)CCN1C [OBABERINE]: yes

* * *

Test: Selectivity index, ratio of ED50 for human KB cells to IC50 for chloroquine-resistant Plasmodium falciparum W2
Format: functional
experimental-endpoint: Selectivity Index

- COc1cc2c3cc1Oc1c(O)c(OC)cc4c1[C@@H](Cc1ccc(O)c(c1)Oc1ccc(cc1)C[C@@H]3N(C)CC2)N(C)CC4 [OBAMEGINE]: 17
- COc1ccc2cc1Oc1ccc(cc1)C[C@@H]1c3cc(c(OC)cc3CCN1C)Oc1c(O)c(OC)cc3c1[C@@H](C2)N(C)CC3: 61
- COc1ccc2cc1Oc1ccc(cc1)C[C@@H]1c3c(cc(OC)c(O)c3Oc3cc4c(cc3OC)CCN(C)[C@@H]4C2)CCN1C: 21
- COc1cc2c3cc1Oc1c(O)c(OC)cc4c1[C@H](Cc1ccc(cc1)Oc1cc(ccc1O)C[C@H]3N(C)CC2)N(C)CC4: 11
- COc1cc2c(cc1O)[C@H](Cc1ccc(Oc3cc(C[C@@H]4c5cc(OC)c(OC)cc5CCN4C)ccc3OC)cc1)N(C)CC2: >140
- COc1ccc2cc1Oc1ccc(cc1)C[C@@H]1c3c(cc(OC)c(O)c3Oc3cc4c(cc3OC)CCN[C@@H]4C2)CCN1C: 26
- COc1cc2c3cc1Oc1c(O)c(OC)cc4c1[C@H](Cc1ccc(O)c(c1)Oc1ccc(cc1)C[C@H]3N(C)CC2)N(C)CC4: 29
- COc1ccc2cc1Oc1ccc(cc1)C[C@H]1c3c(cc(OC)c(OC)c3Oc3cc4c(cc3OC)CCN[C@@H]4C2)CCN1C: 64
- COc1ccc2cc1Oc1cc3c(cc1OC)CCN(C(C)=O)[C@H]3Cc1ccc(cc1)Oc1c3c(cc4c1[C@H](C2)N(C)CC4)OCO3: 7
- COc1ccc2cc1Oc1ccc(cc1)C[C@H]1c3c(cc(OC)c(OC)c3Oc3c4c(cc(OC)c3OC)[C@H](C2)N(C)CC4)CCN1C: 76.4
- COc1ccc2cc1Oc1ccc(cc1)C[C@H]1c3cc(c(OC)cc3CCN1C)Oc1c(O)c(OC)cc3c1[C@H](C2)N(C)CC3 [FANGCHINOLINE]: 30
- COc1ccc2cc1Oc1cc3c(cc1OC)CCN(C)[C@@H]3Cc1ccc(cc1)Oc1c(O)c(OC)cc3c1[C@@H](C2)N(C)CC3: 20
- COc1ccc(C[C@H]2c3cc(Oc4cc(OC)c(OC)cc4C[C@H]4c5cc(O)c(OC)cc5CCN4C)c(OC)cc3CCN2C)cc1O: >180
- COc1ccc2cc1Oc1ccc(cc1)C[C@H]1c3cc(c(OC)cc3CCN1C)Oc1c(O)c(OC)cc3c1[C@@H](C2)N(C)CC3: 28
- OC(c1cc(C(F)(F)F)nc2c(C(F)(F)F)cccc12)C1CCCCN1 (configuration not stated) [MEFLOQUINE]: 1080
- COc1ccc2cc1Oc1ccc(cc1)C[C@H]1c3c(cc(OC)c(O)c3Oc3cc4c(cc3OC)CCN(C)[C@@H]4C2)CCN1C [HOMOAROMOLINE]: 22
- COc1ccc2cc1Oc1cc3c(cc1OC)CCN=C3Cc1ccc(cc1)COc1c(OC)cc3c(c1O)[C@H](C2)N(C)CC3: >200
- COc1cc2c3cc1Oc1cc(ccc1O)C[C@@H]1c4c(cc(OC)c(O)c4Oc4ccc(cc4)C[C@@H]3N(C)CC2)CC[N+]1(C)C.[Cl-]: 2
- COc1cc2c3cc1Oc1c(O)c(OC)cc4c1[C@@H](Cc1ccc(cc1)Oc1cc(ccc1O)C[C@H]3N(C)CC2)N(C)CC4: 82
- COc1ccc2cc1Oc1cc3c(cc1OC)CCN[C@@H]3Cc1ccc(cc1)Oc1c3c(cc4c1[C@@H](C2)N(C)CC4)OCO3: 21.2
- COc1ccc2cc1Oc1ccc(cc1)C[C@H]1c3c(cc(O)c(OC)c3Oc3cc4c(cc3OC)CCN(C)[C@@H]4C2)CCN1C: 21
- COc1ccc2cc1Oc1cc3c(cc1OC)CCN[C@H]3Cc1ccc(cc1)Oc1c3c(cc4c1[C@@H](C2)N(C)CC4)OCO3: 13.3
- COc1ccc2cc1Oc1cc3c(nccc3cc1OC)Cc1ccc(cc1)COc1c(OC)cc3c(c1O)[C@H](C2)N(C)CC3: 220
- COc1ccc2cc1Oc1ccc(cc1)C[C@H]1c3c(cc(OC)c4c3Oc3cc5c(cc3O4)CCN(C)[C@H]5C2)CCN1C [ISOTRILOBINE]: 30
- CN1CCc2cc3c4cc2[C@@H]1Cc1ccc(O)c(c1)Oc1ccc(cc1)C[C@H]1c2c(cc(O)c(c2O4)O3)CCN1C: 19
- COc1ccc2cc1Oc1ccc(cc1)C[C@H]1c3cc(c(OC)cc3CCN1C)Oc1c(OC)c(OC)cc3c1[C@@H](C2)N(C)CC3: 120
- COc1cc2c3cc1Oc1cc(ccc1O)C[C@@H]1c4c(cc5c(c4Oc4ccc(cc4)C[C@@H]3N(C(C)=O)CC2)OCO5)CCN1C: 2.2

* * *

Assay: Selectivity index, ratio of ED50 for human KB cells to IC50 for chloroquine-resistant Plasmodium falciparum W2
Assay type: functional
We begin with a simple list: items and their reported Selectivity Index.
experimental-endpoint: Selectivity Index

• COc1cc2c3cc1Oc1c(OC)c(OC)cc4c1[C@H](Cc1ccc(cc1)Oc1cc(ccc1O)C[C@@H]3N(C)CC2)N(C)CC4 = 220
• COc1ccc2cc1Oc1ccc(cc1)C[C@@H]1NCCc3cc(OC)c4c(c31)Oc1cc3c(cc1O4)CCN(C)[C@H]3C2 [TRILOBINE] = 19
• COc1ccc2cc1Oc1cc3c(cc1OC)CCN(C(C)=O)[C@H]3Cc1ccc(cc1)Oc1c3c(cc4c1[C@@H](C2)N(C)CC4)OCO3 = 13

* * *

Assay: Selectivity index, ratio of ED50 for human KB cells to IC50 for […] Plasmodium falciparum D6
Type: functional
The class of a record is decided solely by its measured Selectivity Index; consult bottom range = under 40, center range = from 40 up to 80, top range = 80 and over

* COc1ccc2cc1Oc1ccc(cc1)C[C@@H]1NCCc3cc(OC)c(cc31)Oc1c(O)c(OC)cc3c1[C@@H](C2)N(C)CC3 | bottom range
* COc1ccc2cc1Oc1ccc(cc1)C[C@H]1c3cc(c(OC)cc3CCN1C)Oc1c(OC)c(OC)cc3c1[C@@H](C2)NCC3 | top range
* COc1ccc2cc1Oc1ccc(cc1)C[C@H]1c3c(cc4c(c3Oc3cc5c(cc3OC)CCN[C@@H]5C2)OCO4)CCN1C | top range
* COc1ccc2cc1Oc1ccc(cc1)C[C@@H]1c3c(cc(OC)c(O)c3Oc3cc4c(cc3OC)CCN(C)[C@@H]4C2)CCN1C | center range
* COc1ccc2cc1Oc1ccc(cc1)C[C@H]1c3c(cc(OC)c(O)c3Oc3cc4c(cc3OC)CCN(C)[C@@H]4C2)CCN1C [HOMOAROMOLINE] | center range
* COc1ccc2cc1Oc1ccc(cc1)C[C@H]1c3cc(c(OC)cc3CCN1C)Oc1c(OC)c(OC)cc3c1[C@H](C2)N(C)CC3 [FANCHININ] | bottom range
* COc1ccc2cc1Oc1cc3c(cc1OC)CCN[C@@H]3Cc1ccc(cc1)Oc1c3c(cc4c1[C@@H](C2)N(C)CC4)OCO3 | bottom range
* COc1ccc2cc1Oc1ccc(cc1)C[C@H]1c3c(cc4c(c3Oc3cc5c(cc3OC)CCN(C)[C@@H]5C2)OCO4)CCN1C [CEPHARANTHINE] | center range
* COc1cc2c3cc1Oc1c(OC)c(OC)cc4c1[C@@H](Cc1ccc(O)c(c1)Oc1ccc(cc1)C[C@@H]3N(C)CC2)NCC4 | top range
* COc1ccc2cc1Oc1ccc(cc1)C[C@@H]1NCCc3cc(OC)c4c(c31)Oc1cc3c(cc1O4)CCN(C)[C@H]3C2 [TRILOBINE] | center range
* OC(c1cc(C(F)(F)F)nc2c(C(F)(F)F)cccc12)C1CCCCN1 (stereo not drawn) [MEFLOQUINE] | top range

Cited source for all entries: ChEMBL document CHEMBL1157985
